- system.name: T1, CIPK1-His (Arabidopsis, UniProt Q8RWC9 1-444)
- T1 construct: source: E. coli BL21 (Rosetta), purified; not shown: 6xHis, C-terminal, kept
- T1 sequence (looked up): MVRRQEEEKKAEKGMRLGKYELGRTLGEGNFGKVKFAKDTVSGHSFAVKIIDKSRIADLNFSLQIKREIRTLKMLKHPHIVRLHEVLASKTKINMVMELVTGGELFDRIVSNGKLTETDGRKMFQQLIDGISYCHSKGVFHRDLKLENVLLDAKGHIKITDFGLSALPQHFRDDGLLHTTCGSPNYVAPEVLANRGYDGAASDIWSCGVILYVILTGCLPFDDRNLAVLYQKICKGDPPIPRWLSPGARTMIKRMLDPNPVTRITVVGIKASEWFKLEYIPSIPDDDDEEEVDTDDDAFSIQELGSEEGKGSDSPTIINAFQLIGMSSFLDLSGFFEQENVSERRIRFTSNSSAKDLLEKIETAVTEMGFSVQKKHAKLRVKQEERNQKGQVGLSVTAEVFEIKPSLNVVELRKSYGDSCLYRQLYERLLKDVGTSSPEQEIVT
- assay.text: pull-down; 5 ug GST-PYR1/PYLs on GST resin at 4 C for 2 h, then 2 ug CIPK1-His for 2 h in pull-down buffer; 6 washes; blots with anti-His and anti-GST
- measurement.conditions: both partners purified
experimental.endpoint: binding result

[[record]]
binder = "GST-PYL2 (receptor, Arabidopsis, UniProt O80992 1-190, looked up, PYL2, ABA receptor, Arabidopsis; source: recombinant protein, purified; not shown: GST, N-terminal, kept) MSSSPAVKGLTDEEQKTLEPVIKTYHQFEPDPTTCTSLITQRIHAPASVVWPLIRRFDNPERYKHFVKRCRLISGDGDVGSVREVTVISGLPASTSTERLEFVDDDHRVLSFRVVGGEHRLKNYKSVTSVNEFLNQDSGKVYTVVLESYTVDIPEGNTEEDTKMFVDTVVKLNLQKLGVAATSAPMHDDE"
reading = "binds"

[[record]]
binder = "GST-PYL1 (receptor, Arabidopsis, UniProt Q8VZS8 1-221, looked up, PYL1, ABA receptor, Arabidopsis; source: recombinant protein, purified; not shown: GST, N-terminal, kept) MANSESSSSPVNEEENSQRISTLHHQTMPSDLTQDEFTQLSQSIAEFHTYQLGNGRCSSLLAQRIHAPPETVWSVVRRFDRPQIYKHFIKSCNVSEDFEMRVGCTRDVNVISGLPANTSRERLDLLDDDRRVTGFSITGGEHRLRNYKSVTTVHRFEKEEEEERIWTVVLESYVVDVPEGNSEEDTRLFADTVIRLNLQKLASITEAMNRNNNNNNSSQVR"
reading = "binds"

[[record]]
binder = "GST-PYR1 (receptor, Arabidopsis, UniProt O49686 1-191, looked up, PYR1, ABA receptor, Arabidopsis; source: recombinant protein, purified; not shown: GST, N-terminal, kept) MPSELTPEERSELKNSIAEFHTYQLDPGSCSSLHAQRIHAPPELVWSIVRRFDKPQTYKHFIKSCSVEQNFEMRVGCTRDVIVISGLPANTSTERLDILDDERRVTGFSIIGGEHRLTNYKSVTTVHRFEKENRIWTVVLESYVVDMPEGNSEDDTRMFADTVVKLNLQKLATVAEAMARNSGDGSGSQVT"
reading = "binds"

